Target: NADPH oxidase 4 (Homo sapiens)
Assay: NOX4-dependent H2O2 signal modulators, primary screen, NOX inhibitor project, cell-based, HEK293-NOX4, tetracycline-induced, Amplex Red fluorescence (AID 1160)
Details: 45 min, higher = more signal, called active from +8 up or from −8 down
READOUT TYPE: z-score
// print number alone

Example entries begin here.
CCOC(=O)[C@H](Cc1ccccc1)NC(=O)CCC1CC(OC(=O)NCc2cccc3ccccc23)CC2(CCCC(COC(=O)NCC(c3ccccc3)c3ccccc3)O2)O1 (some centres not stated) : 0.674
CCCCC#C[C@@H]1C=C[C@H](Oc2ccc(C(=O)OC)cc2)[C@@H](COC(=O)OCC)O1 : 0.725

Which z-score value belongs to "COC(=O)[C@@H]1CC[C@H](C)[C@@H](c2ccc(C)cc2)N1C(=O)c1ccc(C=NO[C@H](C)c2cn([C@@H]3COC[C@H]3O)nn2)cc1" ?
0.124

Same question for "COC(=O)CC=C[C@@H](C)[C@@H](C=NO[C@@H]1O[C@H](COC(C)=O)[C@@H](OC(C)=O)[C@H](OC(C)=O)[C@H]1OC(C)=O)OC" please.
0.729

Same question for "CCC(=O)[C@@]1(O)C(=O)N2C(=C3C(=O)OCC[C@@H]31)N(Cc1ccccc1)C(C)=C(C(=O)OC)[C@H]2c1ccccc1" please.
-0.147

Same question for "COc1cccc([C@H]2Oc3ccc(OC)cc3C(=NOC[C@@H](O)[C@H]3O[C@@H]4OC(C)(C)O[C@@H]4[C@H]3O)[C@@H]2O)c1" please.
-0.776

Same question for "CO[C@@H]1COC(=O)[C@@H]2CCCN2C(=O)[C@@H](C)COC(=O)CC=C[C@H]1C" please.
0.393
